tested on: Severe acute respiratory syndrome coronavirus 2; assay: Inhibition of SARS CoV-2 main protease at 50 uM by rapidfire high-throughput mass spectrometry relative to control
assay-metric: inhibition (%)
Note: unit % is implicit; provide only the numeric part.

Here's what some known entries look like.
Cc1[nH]c2ccccc2c1/C=N/N(C)C(=O)c1ccc2c(c1)OCO2: -6.66
Cc1csc(C(=O)N/N=C/c2cccnc2)c1N: -6.32

Then there is this compound:
// inhibition value for O=C(CNc1c(-c2ccccc2)nc2ccccn12)N/N=C/c1cccc2ccccc12 : 7.53

These entries and their values trace back to ChEMBL document CHEMBL4680067.
